- assay.summary: Single intravenous dose escalation of P5P, plasma pharmacokinetics (Examples Two and Three)
- Type: in vivo, human
- condition.summary: both sexes, human; Group 2, P5P 5 mg/kg single iv; plasma PAL; mean
endpoint.name: AUC(0-inf) (ng·h/mL)
Express your answer in ng·h/mL, writing the number without its unit.

# input What value of measured AUC(0-inf) is listed for Cc1ncc(CO)c(C=O)c1O ?
# output 10400

---

- assay.summary: Single intravenous dose escalation of P5P, plasma pharmacokinetics (Examples Two and Three)
- Assay type: in vivo, human
- condition.summary: both sexes, human, plasma, iv, 20 mg/kg, P5P 20 mg/kg single iv bolus, fasting; plasma; read-out: T½ (converted)
endpoint.name: half-life

# input What does the record list as half-life for Cc1ncc(COP(=O)(O)O)c(C=O)c1O [P5P, Pyridoxal 5′-phosphate, reference compound] ?
# output 5.03 h
